Measured values drawn from ChEMBL document CHEMBL4680280 for this set.

Target: Toll-like receptor 4 (Homo sapiens, UniProt O00206)
Sequence (O00206 whole entry): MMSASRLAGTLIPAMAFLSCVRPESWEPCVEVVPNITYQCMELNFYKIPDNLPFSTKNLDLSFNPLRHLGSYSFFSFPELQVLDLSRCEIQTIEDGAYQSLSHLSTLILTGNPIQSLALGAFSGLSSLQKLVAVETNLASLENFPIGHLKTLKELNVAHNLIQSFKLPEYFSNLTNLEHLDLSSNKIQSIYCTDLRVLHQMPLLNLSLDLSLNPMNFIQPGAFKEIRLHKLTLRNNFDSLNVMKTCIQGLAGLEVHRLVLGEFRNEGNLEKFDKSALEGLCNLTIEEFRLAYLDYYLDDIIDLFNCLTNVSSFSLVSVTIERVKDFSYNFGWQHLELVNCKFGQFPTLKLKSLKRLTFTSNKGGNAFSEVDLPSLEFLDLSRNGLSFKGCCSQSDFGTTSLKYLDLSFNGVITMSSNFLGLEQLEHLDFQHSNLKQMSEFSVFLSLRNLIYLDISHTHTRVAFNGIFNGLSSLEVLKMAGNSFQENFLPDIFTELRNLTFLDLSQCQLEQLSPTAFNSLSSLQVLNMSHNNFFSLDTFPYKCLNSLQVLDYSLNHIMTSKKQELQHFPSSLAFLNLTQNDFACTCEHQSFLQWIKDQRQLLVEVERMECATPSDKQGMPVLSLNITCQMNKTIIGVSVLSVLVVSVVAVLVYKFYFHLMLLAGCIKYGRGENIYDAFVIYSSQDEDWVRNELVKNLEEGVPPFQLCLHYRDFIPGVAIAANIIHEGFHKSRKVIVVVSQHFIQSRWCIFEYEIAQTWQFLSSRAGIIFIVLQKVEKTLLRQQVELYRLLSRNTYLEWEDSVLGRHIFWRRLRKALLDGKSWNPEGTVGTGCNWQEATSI
Experiment: Modulation of TLR4 in human THP1 cells assessed as reduction in LPS-induced TLR4 expression pretreated for 2 hrs followed by LPS challenge and measured after 18 hrs by flow cytometry
experimental.readout: pIC50
Give bare numbers, as −log10 of the molar value.

Give its pIC50 value. Item: C=C1C(=O)O[C@@H]2[C@H]3O[C@]3(C)CC/C=C(\C)CC[C@@H]12
5.85

----------
Biological target: Toll-like receptor 2 (Homo sapiens, UniProt O60603)
Sequence (O60603 whole entry): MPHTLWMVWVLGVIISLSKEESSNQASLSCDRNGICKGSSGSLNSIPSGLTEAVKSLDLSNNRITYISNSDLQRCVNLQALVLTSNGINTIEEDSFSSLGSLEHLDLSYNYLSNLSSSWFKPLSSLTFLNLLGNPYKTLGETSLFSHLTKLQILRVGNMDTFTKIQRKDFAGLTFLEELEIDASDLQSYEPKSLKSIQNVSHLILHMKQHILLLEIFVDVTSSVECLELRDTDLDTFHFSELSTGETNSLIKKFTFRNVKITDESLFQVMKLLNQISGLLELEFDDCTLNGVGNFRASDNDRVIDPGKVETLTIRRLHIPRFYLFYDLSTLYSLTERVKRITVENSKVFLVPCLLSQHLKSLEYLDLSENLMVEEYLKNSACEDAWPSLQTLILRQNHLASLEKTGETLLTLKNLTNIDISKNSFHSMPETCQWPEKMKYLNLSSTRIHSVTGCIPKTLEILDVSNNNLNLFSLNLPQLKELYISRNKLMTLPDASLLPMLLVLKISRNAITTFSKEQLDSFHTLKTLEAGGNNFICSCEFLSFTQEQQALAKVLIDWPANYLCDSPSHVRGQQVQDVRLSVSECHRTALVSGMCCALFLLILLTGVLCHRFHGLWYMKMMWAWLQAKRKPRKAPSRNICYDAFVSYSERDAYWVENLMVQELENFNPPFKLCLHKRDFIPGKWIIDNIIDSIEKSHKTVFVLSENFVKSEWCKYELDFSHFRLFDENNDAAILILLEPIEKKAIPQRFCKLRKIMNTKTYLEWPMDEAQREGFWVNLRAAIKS
Experiment: Agonist activity at TLR2 in HEK-Blue hTLR2 cells assessed as NF-kappaB activation preincubated for 24 hrs followed by replacement of medium containing compound and measured after 0.5 to 1 hrs by Quanti-blue SEAP assay
experimental.readout: EC50

CCOC(=O)c1c(NC(=O)N2CCN(C)CC2)sc2c1CCC2	550 nM

Give its EC50 value. Item: CNc1ccc([N+](=O)[O-])cc1-n1cnc(-c2ccc(C(F)(F)F)cc2O)c1
4.88 nM
